target: human adenosine A2A receptor (Homo sapiens, UniProt P29274); experiment: Adenosine A2A receptor functional assay (A2AGAL2), cAMP inducible beta-galactosidase reporter, NECA challenge; settings: CHO-K1 cells overexpressing human A2A receptor; antagonist curve against 15 nM NECA
Sequence (P29274 whole entry): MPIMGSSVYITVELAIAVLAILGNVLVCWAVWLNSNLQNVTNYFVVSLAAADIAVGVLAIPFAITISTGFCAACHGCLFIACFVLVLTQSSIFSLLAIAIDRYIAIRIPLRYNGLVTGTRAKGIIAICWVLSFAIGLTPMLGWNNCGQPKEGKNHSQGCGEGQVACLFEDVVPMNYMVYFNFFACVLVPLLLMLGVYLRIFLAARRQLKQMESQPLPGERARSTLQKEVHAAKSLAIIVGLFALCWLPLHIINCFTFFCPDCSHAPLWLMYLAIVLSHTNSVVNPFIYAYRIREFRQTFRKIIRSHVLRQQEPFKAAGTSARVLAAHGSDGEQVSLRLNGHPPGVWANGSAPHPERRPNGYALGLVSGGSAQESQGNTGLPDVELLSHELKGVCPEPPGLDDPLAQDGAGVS
Overview of reported IC50 across a group of molecules:
measurement kind: IC50 (nM)

> print(dat)
                                   molecule  observed
1  Cc1noc(C)c1Cc1cccc2c1-c1nc(N)nc(-c3ccc(F)cc3)c1C2=O [Example 3]      41.3
2  Cc1nc(C)c(Cc2cccc3c2-c2nc(N)nc(-c4ccc(F)cc4)c2C3=O)s1 [Example 1]      11.9
3  Nc1nc(-c2ccc(F)cc2)c2c(n1)-c1c(Cc3cn[nH]c3)cccc1C2=O [Example 2]      0.75

---

Overview of reported pIC50 across a group of compounds:
target: human adenosine A1 receptor (Homo sapiens); experiment: Adenosine A1 receptor functional assay (A1GAL2), cAMP inducible beta-galactosidase reporter, r-PIA/Forskolin challenge; settings: CHO-K1 cells overexpressing human A1 receptor; antagonist curve against 4 nM r-PIA/1 uM Forskolin
Sequence (P30542 whole entry): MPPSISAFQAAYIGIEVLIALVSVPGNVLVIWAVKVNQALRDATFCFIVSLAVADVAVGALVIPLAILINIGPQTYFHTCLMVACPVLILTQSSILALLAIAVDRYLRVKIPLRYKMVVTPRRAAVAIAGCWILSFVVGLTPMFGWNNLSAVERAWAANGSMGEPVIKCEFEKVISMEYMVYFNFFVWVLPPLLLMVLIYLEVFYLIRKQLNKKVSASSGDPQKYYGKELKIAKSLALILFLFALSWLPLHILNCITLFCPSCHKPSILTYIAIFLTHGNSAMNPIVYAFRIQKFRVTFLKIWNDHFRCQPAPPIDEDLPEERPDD
pIC50: −log10 of the molar value.
measurement kind: pIC50

> print(dat)
                                   compound  observed
1  Nc1nc(-c2ccc(F)cc2)c2c(n1)-c1c(Cc3cn[nH]c3)cccc1C2=O [Example 2]      6.83
2  Cc1noc(C)c1Cc1cccc2c1-c1nc(N)nc(-c3ccc(F)cc3)c1C2=O [Example 3]      5.57
3  Cc1nc(C)c(Cc2cccc3c2-c2nc(N)nc(-c4ccc(F)cc4)c2C3=O)s1 [Example 1]      5.48
